Target Under Test: glycosylated human PAI-1 (active form) (human, UniProt P05121 24-402, glycosylated (sites not given))
Sequence (P05121 24-402 limits assumed, form in doubt): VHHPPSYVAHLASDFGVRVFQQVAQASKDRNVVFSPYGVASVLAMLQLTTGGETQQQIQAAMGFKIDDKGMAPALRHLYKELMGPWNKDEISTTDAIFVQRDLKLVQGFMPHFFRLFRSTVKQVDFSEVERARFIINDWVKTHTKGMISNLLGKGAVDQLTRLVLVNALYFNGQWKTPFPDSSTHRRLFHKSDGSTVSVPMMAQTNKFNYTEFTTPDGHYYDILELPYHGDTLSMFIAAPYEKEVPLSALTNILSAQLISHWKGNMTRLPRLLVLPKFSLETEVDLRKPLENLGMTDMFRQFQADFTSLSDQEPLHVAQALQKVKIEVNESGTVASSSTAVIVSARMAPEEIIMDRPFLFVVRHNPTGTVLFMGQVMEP
Assay Details: cell-based or functional assay
Observation Type: plasmin generation, IC50abs

{"Binder": "A44 (antibody, mouse IgG1, V domains shown) VH: EMQLQESGPSLVKPSQTLSLTCSVTGDSMTNGYWNWIRKFPGNKLEYMGYITYSGSTYYNPSLKGRISITRNTSKNQYYLQLSSVTTEDTATYYCARWHYGSPYYFDYWGQGTTLTVSS VL: DIKMTQSPSSMYASLGERVTITCKASQDINSYLSWLQQKPGKSPKTLIYRANRSVDGVPSRFSGSGSGQDYSLTISSLEYEDMGIYYCLQYDEFPPTFGGGTKLEIKR", "plasmin generation, IC50abs": "3.32 nM"}

Look at this binder and give its reported plasmin generation, IC50abs. E16 (antibody, mouse IgG1, V domains shown) VH: EVKLVESGGGLVKPGGSLKLSCAASGFTFSNYGMSWVRQTPEKGLGWVASLRTGGNTYYSDSVKGRFTISRDNDRNILYLQMSSLTSEDTAVYYCARGLRHWGYFDVWGAGTTVTVSS VL: DIVMTQSHKFMSTSVGDRVNITCKASQDVSTAVGWYQQEPGQSPKLLIYSASNRHTGVPDRFTGSGSGTDFTFTISSVQAEDLAVYYCQQHYSSPWTFGGGTKLEIK
4.74 nM

Look at this binder and give its reported plasmin generation, IC50abs. B28 (antibody, mouse IgG2b, V domains shown) VH: QVQLQQSGAELMKPGASVKISCKATGYTFSISWIEWIKQRPGGLEWIGKILPGSGGANYNEKFKGKATVTADTSSNTVYMQLSSLTSEDSAVYYCARLSTGTRGAFDYWGQGTTLTVSS VL: DIQLTQSPASLSASVGATVTITCRASENVYSYLAWYQQKQGKSPQLLVYNAKTLAEGVPSRFSGSGSGTQFSLKINYLQPEDFGSYYCQHHYGTPPTFGGGTKVEIKR
7.28 nM

Look at this binder and give its reported plasmin generation, IC50abs. C45 (antibody, mouse IgG2b, V domains shown) VH: QVQLQQSGVELVRPGTSVKVSCKASGYAFTNYLIEWIKQRPGQGLEWIGVIHPGSGVTNYNEKFKGKAILTADKSSSTAYMQLSSLTSDDSAVYFCARDYYGSSHGLMDYWGQGTSVTVSS VL: DIKMTQSPSSMYASLGERVTITCKASQDINSYLSWFQQKPGKSPKTLIYRANRLVDGVPSRFSGSGSGQDYSLTISSLEYEDMGIYYCLQYDEFPRTFGGGTKLEIK
6.5 nM
